The measured values listed here are drawn from patent US10000473B2.

Biological target: human GCGR (Homo sapiens, UniProt P47871)
Sequence (P47871 26-477): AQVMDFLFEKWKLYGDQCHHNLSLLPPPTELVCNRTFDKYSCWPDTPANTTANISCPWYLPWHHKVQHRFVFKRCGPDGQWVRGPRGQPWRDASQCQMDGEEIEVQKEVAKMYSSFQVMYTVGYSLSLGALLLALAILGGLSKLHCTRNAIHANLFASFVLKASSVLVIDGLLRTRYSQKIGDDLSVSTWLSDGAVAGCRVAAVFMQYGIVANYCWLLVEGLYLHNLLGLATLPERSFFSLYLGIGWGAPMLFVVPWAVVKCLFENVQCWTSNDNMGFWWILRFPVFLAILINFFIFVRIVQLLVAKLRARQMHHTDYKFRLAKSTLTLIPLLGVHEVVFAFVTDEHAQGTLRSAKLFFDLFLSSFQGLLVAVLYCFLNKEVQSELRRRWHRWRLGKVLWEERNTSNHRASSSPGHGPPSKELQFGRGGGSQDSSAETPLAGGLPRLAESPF
Assay: Cellular functional assay, cAMP readout (glucagon-stimulated cAMP, LANCE TR-FRET)
Settings: HEK293 cells stably expressing full-length human GCGR; glucagon 100 pM; IC50 converted to Ki; read-out: Inhibition of cAMP Ki
ASSAY METRIC: Ki (nM)

                                   compound  meas_value
0  CC(C)CC(c1ccc(C(=O)NCCC(=O)O)nc1)n1cc2cc(-c3ccc(C(F)(F)F)cc3Cl)ccc2n1 (centres unmarked) [Compound #53]         105
1  Cc1cc2c(cnn2[C@@H](CC(C)C)c2ccc(C(=O)NCCC(=O)O)cc2)cc1-c1ccc(C(F)(F)F)cc1Cl [Compound #196]          32

A. Cc1cc(C(F)(F)F)ccc1-c1ccc2nn(C(CC(C)C)c3ccc(C(=O)NCCC(=O)O)nc3)cc2c1C (centres unmarked) [Compound #155]
B. CCCCCCC(c1ccc(C(=O)NCCC(=O)O)nc1)n1cc2cc(-c3ccc(Cl)cc3C)ccc2n1 (centres unmarked) [compound 203]
C. Cc1c(-c2ccc(Cl)cc2Cl)ccc2c1cnn2C(CC(C)C)c1ccc(C(=O)NCCC(=O)O)cc1 (centres unmarked) [Compound #127]
Exam item: list the entries in increasing order of Ki. Please list the labels in the order you were asked to rank them.
A, B, C
(A: 9 nM, B: 75 nM, C: 310 nM)
